Tested on: model oligoribonucleotide (ORN) with 27 bases
Test: Functionalisation of a model ORN with 27 bases: functionalisation rate and regiospecificity by HPLC/LC-MS after nuclease P1/alkaline phosphatase hydrolysis
Type: biochemical
Details: ORN 8 nmol, compound 30 mM, 1 h at 65° C., 250 mM TEAAc pH 7, 25% DMSO
Protocol: For this purpose, a fixed quantity of ORN is reacted with an isatoic anhydride derivative conjugated to a molecule of interest (Cy3 IA Me (13)), under various temperature conditions, duration conditions, reaction medium conditions, etc. […] The mixture is incubated for 60 minutes at 65° C. in an oven on a rack which is temperature-balanced in advance. An HPLC injection (conditions 3) makes it possible to monitor a formation of a certain quantity of acylated ORN as described in FIG. 6. […]
Provide the reported Fr (corrected functionalisation rate) of each item.
Give bare numbers, in %.

These recorded examples may help you get a feel for the data.
compound: CC(=O)Nc1ccc2c(c1)c(=O)oc(=O)n2CC(=O)NCCOCCOCCNC(=O)CCCCC1SCC2NC(=O)NC21 (stereo not drawn)
unit abbrev: %
Fr (corrected functionalisation rate): 1.2
//
compound: CCN1/C(=C\C=C\C2=[N+](CCCCCC(=O)Nc3ccc4c(c3)c(=O)oc(=O)n4C)c3ccc(S(=O)(=O)[O-])cc3C2(C)C)C(C)(C)c2cc(S(=O)(=O)[O-])ccc21.[K+] [Cy3 IA Me 13, 1-methyl 5-Cy3-isatoic anhydride]
unit abbrev: %
Fr (corrected functionalisation rate): 4.5

Read the next record carefully.
Could you tell me which Fr (corrected functionalisation rate) is on file for O=C(CCCCC1SCC2NC(=O)NC21)NCCOCCOCCOCCOCCC(=O)Nc1ccc2[nH]c(=O)oc(=O)c2c1 (stereo not drawn) ? 3.3

====

Would you mind telling me the reported solubility of each entry?
assay: Solubility in water
One number for each entry, in mM.

compound: O=C(CCCCC1SCC2NC(=O)NC21)Nc1ccc2[nH]c(=O)oc(=O)c2c1 (stereo not shown) [5Biot IA 5, 5-biotin-isatoic anhydride]
solubility, mM: 1

compound: Cn1c(=O)oc(=O)c2cc(NC(=O)CCOCCOCCOCCOCCNC(=O)CCCCC3SCC4NC(=O)NC43)ccc21 (stereo not shown) [5Biot PEG4 IA Me 11]
solubility, mM: 50

Proceeding to the next compound to report its solubility.
Any idea what solubility was measured for O=C(CCCCC1SCC2NC(=O)NC21)NCCOCCOCCOCCOCCC(=O)Nc1ccc2[nH]c(=O)oc(=O)c2c1 (stereo not shown) [5Biot PEG4 IA 6] ? 19

====

tested on: model oligoribonucleotide (ORN) with 27 bases; test: Functionalisation of a model ORN with 27 bases: functionalisation rate and regiospecificity by HPLC/LC-MS after nuclease P1/alkaline phosphatase hydrolysis; assay type: biochemical; conditions: ORN 8 nmol, compound 30 mM, 1 h at 65° C., 250 mM TEAAc pH 7, 25% DMSO
test readout: Fr (corrected functionalisation rate)

Study these solved cases before continuing.
molecule: O=C(CCCCC1SCC2NC(=O)NC21)Nc1ccc2c(c1)c(=O)oc(=O)n2CCCS(=O)(=O)O (stereo not drawn)
reported value: 1.6%
//
molecule: O=C(CCCCCn1c(=O)oc(=O)c2ccccc21)NCCCOCCOCCOCCCNC(=O)CCCCC1SCC2NC(=O)NC21 (stereo not drawn)
reported value: 0.7%

Now turn to the next molecule.
Recorded Fr (corrected functionalisation rate) for Cn1c(=O)oc(=O)c2cc(NC(=O)CCSSCCNC(=O)CCOCCOCCOCCOCCNC(=O)CCCCC3SCC4NC(=O)NC43)ccc21 (stereo not drawn) , please? 2.8%
